- assayName: Determination of pharmacokinetic parameters in rats
- runConditions: male, Wistar (RccHan:WIST), rat, plasma, po, 2 mg/kg, pH 3.03
measuredProperty: AUC (ng·h/mL)
Give bare numbers, in ng·h/mL.

Prompt line: Given the entry CNc1ncc(-c2cc(C(F)(F)F)ccc2N2CCN(C(=O)Cn3nc(C)cc3C)CC2)cn1 [reference compound 3] , report its measured AUC.
Response line: 271

###

- systemName: human CXCR3A (Homo sapiens, UniProt P49682)
- Sequence (P49682 1-368): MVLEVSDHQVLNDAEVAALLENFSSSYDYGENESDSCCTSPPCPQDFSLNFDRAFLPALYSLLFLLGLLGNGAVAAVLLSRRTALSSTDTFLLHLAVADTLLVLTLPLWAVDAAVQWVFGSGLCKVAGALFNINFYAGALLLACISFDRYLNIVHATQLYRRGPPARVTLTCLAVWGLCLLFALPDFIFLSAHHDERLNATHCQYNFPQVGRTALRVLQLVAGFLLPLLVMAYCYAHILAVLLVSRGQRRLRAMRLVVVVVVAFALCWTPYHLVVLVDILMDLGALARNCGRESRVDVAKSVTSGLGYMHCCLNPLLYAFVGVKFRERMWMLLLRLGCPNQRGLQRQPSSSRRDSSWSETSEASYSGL
- assayName: FLIPR assay (CXCL10-induced calcium signal in CHO-K1 cells)
- runConditions: CHO-K1 cells expressing human CXCR3A coupled to Galpha(16); CXCL10 agonist 20 nM; mean values
- Protocol: A) FLIPR assay: The bioactivity of compounds is tested in a fluorometric imaging plate reader (FLIPR: Molecular Devices) using engineered CHO-K1 cells expressing the human CXCR3A (GenBank: AY242128) coupled to a G protein (Galpha(16)). […] Following basal readings, 10 microliter CXCL10 agonist at a concentration of 20 nM (from Peprotech) is added, again using the FLIPR instrument. Changes in fluorescence are monitored before and after addition of the test compounds. […]
Exercise: state measured IC50 for each of the molecules provided.
Give bare numbers, in nM.

Completed entries (count: 5):
- givenSmiles: "Cc1nc(C)n(CC(=O)N2CCN(c3sc(C(F)(F)F)nc3-c3cnc(C4CC4)nc3)C[C@H]2C)n1"
  measuredProperty: "IC50"
  val: 2.9
- givenSmiles: "[2H]C([2H])(C(=O)N1CCN(c2sc(C(F)(F)F)nc2-c2cnc(OCC)nc2)C[C@H]1C)n1nc(C)nc1C"
  measuredProperty: "IC50"
  val: 5.6
- givenSmiles: "CCOc1ncc(-c2nc(C(F)(F)F)sc2N2CCN(C(=O)Cn3nc(C)nc3C)[C@H](C)C2)c(OCC)n1"
  measuredProperty: "IC50"
  val: 4.5
- givenSmiles: "Cc1nc(C)n(CC(=O)N2CCN(c3sc(C(F)(F)F)nc3-c3ccc4c(c3)CCCO4)C[C@H]2C)n1"
  measuredProperty: "IC50"
  val: 4.7
- givenSmiles: "Cc1nc(C)n(CC(=O)N2CCN(c3sc(C(F)(F)F)nc3-c3cnc(OC4CCC4)nc3)C[C@H]2C)n1"
  measuredProperty: "IC50"
  val: 2.3

Give me IC50 for each of these molecules, listed below.
1. Cc1nc(C)n(CC(=O)N2CCN(c3sc(C(F)(F)F)nc3-c3cnc(N4CCCC4)nc3)C[C@H]2C)n1
2. Cc1nc(C)n(CC(=O)N2CCN(c3sc(C(F)(F)F)nc3-c3cnc4c(c3)CCCO4)C[C@H]2C)n1

Response line:
1.6
31

src = patent US10259807B2
